System: human iPSC neurons, astrocytes and microglia treated with 5 μM sAβ42s
Experiment: Focused small molecule screen, triple culture (neuron, astrocyte, microglia), rescue from sAβ42s toxicity
Format: cell-based
Conditions: 50.00 μM compound
I would appreciate it if you labelled entries condition met when % B3T rescue is 50% or higher, otherwise condition not met.

1) OC(CNc1ccccc1)Cn1c2ccc(Br)cc2c2cc(Br)ccc21 (stereo not drawn)    condition not met
2) Cn1sc(=O)n(Cc2ccccc2)c1=O    condition met
3) Cc1ccc(S(=O)(=O)/C=C/C#N)cc1    condition not met
4) Cc1[nH]c(/C=C2\C(=O)Nc3ccccc32)c(C)c1CCC(=O)O    condition met
5) N#C/C(=C\c1ccc(O)c(O)c1)C(=O)OCCc1cccs1    condition met
6) N#CC(c1ccnc(NCCc2cccnc2)n1)c1nc2ccccc2s1 (stereo not drawn)    condition not met
7) CCOC(=O)c1ccc(N(C)c2csc(-c3ccccc3)n2)cc1    condition not met
8) Cn1cc(C2=C(c3ccc(Cl)cc3Cl)C(=O)NC2=O)c2ccccc21    condition not met
9) CC(/C=C/C(=O)NO)=C\[C@@H](C)C(=O)c1ccc(N(C)C)cc1    condition not met
10) COC(=O)C1(C)c2[nH]c3ccccc3c2CCN1C(=O)CCl (stereo not drawn)    condition not met
11) COc1ccc(S(=O)(=O)NCCCC(=O)Nc2ccc(Sc3ccc(N)cc3)cc2)cc1    condition met
12) Cc1c(C)c(NCC(=O)N(C)C2CCN(Cc3ccc(C(N)=O)cc3)CC2)c(C)c(C)c1N    condition not met
13) C=C[C@@]1(C)CC(=O)[C@]2(O)[C@@]3(C)[C@@H](O)CCC(C)(C)[C@@H]3[C@H](OC(=O)CCN(C)C)[C@H](OC(C)=O)[C@@]2(C)O1.Cl    condition met
14) O=C1Nc2ccc3ncsc3c2/C1=C/Nc1ccc(S(=O)(=O)Nc2ccccn2)cc1    condition met
15) CC1=NN(c2ccc(C(=O)O)cc2)C(=O)/C1=C\c1ccc(-c2cc(C)c(C)cc2[N+](=O)[O-])o1    condition met
16) O=C(Nc1cccc(Br)c1)c1cccc(S(=O)(=O)N2CCCCCC2)c1    condition met
17) O=C1NC(=O)c2c1c1c3ccccc3n3c1c1c2c2ccccc2n1C1CCC3O1    condition not met

###

System: human iPSC neurons, astrocytes and microglia treated with 5 μM sAβ42s
Test: Focused small molecule screen, triple culture (neuron, astrocyte, microglia), rescue from sAβ42s toxicity
Type: cell-based
Conditions: Homo sapiens, iPSC, 50.00 μM compound, read-out: % Synapse rescue
Where a SMILES comes first, the peptide text is derived from it. The star is where a group is joined. Cbz = O=C(OCc1ccccc1)*
Catalogue of percent rescue from sAβ42s toxicity at 50 µM values
parameter: percent rescue from sAβ42s toxicity at 50 µM (%)

1) C/C=C1\C(=O)C[C@H]2[C@@H]3CCC4=CC(=O)CC[C@]4(C)[C@H]3CC[C@]12C [Guggulsterone]    17
2) CC(=O)c1c(C)c2cnc(Nc3ccc(N4CCNCC4)cn3)nc2n(C2CCCC2)c1=O [PD 0332991 isethionate]    -29
3) CC(C)C[C@@H](C=O)NC(=O)[C@H](CC(C)C)NC(=O)[C@H](CC(C)C)NC(=O)OCc1ccccc1 [MG-132] (Cbz-Leu-Leu-Leu-aldehyde)    -11
4) N#Cc1ccnc(Nc2cc(C3CCN(C4COC4)CC3)cc(N3CCC(F)(F)C3)n2)c1 [GNE-3511]    56

###

Tested on: human iPSC neurons, astrocytes and microglia treated with 5 μM sAβ42s
Assay: Focused small molecule screen, triple culture (neuron, astrocyte, microglia), rescue from sAβ42s toxicity
Type: cell-based
Details: 50.00 μM compound
From the text: […]
Listing of entries alongside the reported % Synapse rescue.
parameter: % Synapse rescue (%)

1. CCCn1c(C)c(C(=O)c2cccc3ccccc23)c2ccccc21    26
2. Cn1cc(C2=C(c3ccc(Cl)cc3Cl)C(=O)NC2=O)c2ccccc21    −15
3. Cn1sc(=O)n(Cc2ccccc2)c1=O    −8
4. CC(/C=C/C(=O)NO)=C\[C@@H](C)C(=O)c1ccc(N(C)C)cc1    1
5. N#C/C(=C\c1ccc(O)c(O)c1)C(=O)OCCc1cccs1    40
6. Cc1[nH]c(/C=C2\C(=O)Nc3ccccc32)c(C)c1CCC(=O)O    75
7. OC(CNc1ccccc1)Cn1c2ccc(Br)cc2c2cc(Br)ccc21 (stereo not drawn)    2
8. Cc1ccc(S(=O)(=O)/C=C/C#N)cc1    −1
9. O=C1NC(=O)c2c1c1c3ccccc3n3c1c1c2c2ccccc2n1C1CCC3O1    19
10. O=C1NC(=O)C(c2ccccc2[N+](=O)[O-])=C1Nc1ccc(O)c(Cl)c1    40
11. N#CC(c1ccnc(NCCc2cccnc2)n1)c1nc2ccccc2s1 (stereo not drawn)    45
12. Cc1ccc2c(c1)C(=O)[C@]1(O)CCN(c3ccccc3)C1=N2 [(S)-(−)-Blebbistatin]    20
13. O=C(COc1ccc(Cl)cc1)NC1CCC(NC(=O)COc2ccc(Cl)cc2)CC1 (stereo not drawn)    21
14. O=C1Nc2ccc3ncsc3c2/C1=C/Nc1ccc(S(=O)(=O)Nc2ccccn2)cc1    −15
15. COC(=O)C1(C)c2[nH]c3ccccc3c2CCN1C(=O)CCl (stereo not drawn)    −1

###

Test system: human iPSC neurons and astrocytes treated with 5 μM sAβ42s
Test: Focused small molecule screen, double culture (neuron, astrocyte), rescue from sAβ42s toxicity, high content imaging
Type: cell-based
Conditions: Homo sapiens, iPSC; 6.25 μM compound; double culture; 5 μM sAβ42s; read-out: % Synapse rescue
Method: […] Neurons from both NSC lines were evaluated by immunofluorescence staining. […]
Where a SMILES comes first, the peptide text is derived from it. The star is where a group is joined. Cbz = O=C(OCc1ccccc1)*
parameter: percent rescue from sAβ42s toxicity at 6.25 µM (%)

1) N#Cc1ccnc(Nc2cc(C3CCN(C4COC4)CC3)cc(N3CCC(F)(F)C3)n2)c1 [GNE-3511]    7
2) CN1CCN(CCOc2cc(OC3CCOCC3)c3c(Nc4c(Cl)ccc5c4OCO5)ncnc3c2)CC1 [Saracatinib (AZD0530), Saracatinib]    32
3) CC(C)C[C@@H](C=O)NC(=O)[C@H](CC(C)C)NC(=O)[C@H](CC(C)C)NC(=O)OCc1ccccc1 [MG-132] (Cbz-Leu-Leu-Leu-aldehyde)    -6
4) CCCC[C@@H](C=O)NC(=O)[C@H](CC(C)C)NC(=O)OCc1ccccc1 [Calpeptin]    6

###

Test system: human iPSC neurons, astrocytes and microglia treated with 5 μM sAβ42s
Experiment: Focused small molecule screen, triple culture (neuron, astrocyte, microglia), rescue from sAβ42s toxicity
Format: cell-based
Conditions: Homo sapiens, iPSC, 50.00 μM compound, read-out: % Synapse rescue
Counter-ions that a name gives are not always drawn.
Entry flag: t if percent rescue from sAβ42s toxicity at 50 µM reaches 30%; f if it does not.

1. CCCC[C@@H](C=O)NC(=O)[C@H](CC(C)C)NC(=O)OCc1ccccc1    t
2. Cc1c[nH]c(-c2cnc(NCCNc3ccc(C#N)cn3)nc2-c2ccc(Cl)cc2Cl)n1 [CHIR 99021 trihydrochloride]    t
3. O=c1cc(-c2ccc(O)c(O)c2)oc2cc(O)cc(O)c12    t
4. Oc1ccc(C=Cc2cc(O)cc(O)c2)cc1    t
5. COc1cc([C@@H]2c3cc4c(cc3[C@@H](O[C@@H]3O[C@@H]5CO[C@@H](c6cccs6)O[C@H]5[C@H](O)[C@H]3O)[C@H]3COC(=O)[C@H]23)OCO4)cc(OC)c1O [Teniposide]    f
6. Cn1cnc2c(NCc3ccccc3)nc(NCCO)nc21    f
7. O=C(NOC[C@H](O)CO)c1ccc(F)c(F)c1Nc1ccc(I)cc1F    f
8. Oc1cc(O)c2c(c1)O[C@H](c1ccc(O)c(O)c1)[C@H](O)C2 [Epicatechin]    f

###

Test system: human iPSC neurons, astrocytes and microglia treated with 5 μM sAβ42s
Assay: Focused small molecule screen, triple culture (neuron, astrocyte, microglia), rescue from sAβ42s toxicity
Type: cell-based
Details: 3.13 μM compound
Where a SMILES comes first, the peptide text is derived from it. [ ]: non-standard residue; d: D form. Nle = CCCC[C@H](N)C(=O)O
Classify on % Synapse rescue using bottom: < 20%; middle: ≥ 20% and < 30%; top: ≥ 30%

1. CC(C)[C@H](CO)Nc1nc(Nc2cccc(Cl)c2)c2ncn(C(C)C)c2n1 [Purvalanol A]    middle
2. CCN(CC)CCNC(=O)c1c(C)[nH]c(/C=C2\C(=O)Nc3ccc(F)cc32)c1C [SU 11248]    top
3. CN(C)S(=O)(=O)c1ccc2c(c1)/C(=C/c1cc3c([nH]1)CCCC3)C(=O)N2 [SU6656]    top
4. O=C1Nc2ccc3ncsc3c2/C1=C/Nc1ccc(S(=O)(=O)Nc2ccccn2)cc1 [GW8510]    middle
5. CCCC[C@@H](C=O)NC(=O)[C@H](CC(C)C)NC(=O)[C@H](CC(C)C)NC(C)=O [Ac-Leu-Leu-Nle-CHO] (Ac-Leu-Leu-[Nle]-aldehyde)    top
6. C=C[C@@]1(C)CC(=O)[C@]2(O)[C@@]3(C)[C@@H](O)CCC(C)(C)[C@@H]3[C@H](OC(=O)CCN(C)C)[C@H](OC(C)=O)[C@@]2(C)O1.Cl [NKH 477]    bottom
7. N#C/C(=C\c1ccc(O)c(O)c1)C(=O)OCCc1cccs1 [2-TEDC]    bottom
8. C=C(c1ccc(C(=O)O)c(F)c1)c1cc2c(cc1C)C(C)(C)CCC2(C)C [Fluorobexarotene]    top
9. O=C(Nc1cccc(Br)c1)c1cccc(S(=O)(=O)N2CCCCCC2)c1 [AK 7]    bottom
10. N#CC(c1ccnc(NCCc2cccnc2)n1)c1nc2ccccc2s1 (stereo not shown) [AS601245]    bottom
11. Cc1[nH]c(/C=C2\C(=O)Nc3ccccc32)c(C)c1CCC(=O)O [SU 6668]    middle
12. O=C1Nc2ccccc2/C1=C1/Nc2ccccc2/C1=N\O [Indinibin-3′-monoxime]    bottom
13. OC(CNc1ccccc1)Cn1c2ccc(Br)cc2c2cc(Br)ccc21 (stereo not shown) [P7C3]    bottom
14. CCCCCCCCCCCCCCCCCC(=O)NCCc1ccc(O)c(O)c1 [STEARDA]    middle
15. COC(=O)C1(C)c2[nH]c3ccccc3c2CCN1C(=O)CCl (stereo not shown) [PDI Inhibitor 16F16]    top
16. Cc1c(C)c(NCC(=O)N(C)C2CCN(Cc3ccc(C(N)=O)cc3)CC2)c(C)c(C)c1N [sun11602]    bottom
